Data provenance is patent US20200009088A1.

# test.protocol: in vivo
# experimental.conditions: male, Sprague-Dawley, rat, in vivo, po, 200 mg/kg
compounds and their reported AUC(0-inf)
# number only, unit µM·h dropped from output

O=C(Nc1ccc(C(F)(F)F)cc1Cl)c1cc(Cl)ccc1O ... 4.28

Query string: Specify AUC(0-inf) for C=CC(=O)Oc1ccc(Cl)cc1C(=O)Nc1ccc([N+](=O)[O-])cc1Cl and stop.
Result string: 6.48
